# targetUnderTest: Integrin alpha-V/beta-3 (Homo sapiens) (UniProt P05106+P06756)
# experimentalProtocol: Displacement of [125I]echistatin from integrin alpha-V-beta-3 receptor at 1 uM
# Format: protein-complex assay
quantity: inhibition (%)

>>> print(df.to_string())
                                   molecule    quantity  scaleunit  measurement
0  CC12CC/C=C\CC(NC1=O)C(=O)N[C@H](CCCNC(=N)N)C(=O)NCC(=O)N[C@@H](CC(=O)O)C(=O)N2 (stereo in doubt; 3a)  inhibition          %           30
1  CC12CC/C=C\CC(NC1=O)C(=O)N[C@H](CCCNC(=N)N)C(=O)NCC(=O)N[C@@H](CC(=O)O)C(=O)N2Cc1ccccc1 (stereo in doubt; 2b)  inhibition          %           50
2  CC12CC/C=C\CC(NC1=O)C(=O)N[C@H](CCCNC(=N)N)C(=O)NCC(=O)N[C@@H](CC(=O)O)C(=O)N2 (stereo in doubt; 3b)  inhibition          %           30
3  CC12CC/C=C\CC(NC1=O)C(=O)N[C@H](CCCNC(=N)N)C(=O)NCC(=O)N[C@@H](CC(=O)O)C(=O)N2Cc1ccccc1 (stereo in doubt; 2a)  inhibition          %           49

Numbers sourced from ChEMBL document CHEMBL1139062.
